test system: M14; test: NCI tumour cell line growth inhibition, 48 h
The source made the active and inactive calls. Rule as the data show it: active = GI50 up to about 1.1 µM and inactive = higher.
Hello, when you answer, please use one of the following outcomes: 1.0 (active), 0.0 (inactive)

Assay outcome for C=CC[P@]1(=O)O[C@H](c2ccccc2)C(C)N1C(C)C (some centres undefined) : what was it?
0.0

Assay outcome for `Cc1cc(C)nc(NS(=O)(=O)c2ccc(NC(=O)c3ccc(Cl)c4c(Nc5ccc(S(=O)(=O)Nc6nc(C)cc(C)n6)cc5)c5ccccc5nc34)cc2)n1` : what was it?
0.0

Assay outcome for `COc1cc(O)c2c(=O)cc(-c3ccc(O)cc3O)oc2c1CC=C(C)C` : what was it?
0.0

Assay outcome for CN/N=C(\C)C(CN(C)C)C(c1ccccc1)c1c(O)c2ccccc2oc1=O (centres undefined) : what was it?
0.0

Assay outcome for `Cc1ccc(S(=O)(=O)c2c(N)c3nc4ccccc4n3c3nc4ccccc4nc23)cc1` : what was it?
0.0

Assay outcome for `CC1=C(C(=O)OC(C)(C)C)C(c2ccc([N+](=O)[O-])cc2)C(C(=O)OC(C)(C)C)=C(C)N1` : what was it?
0.0

Assay outcome for c1ccc(SC2CCSc3ccccc3C2Sc2ccccc2)cc1 (centres undefined) : what was it?
0.0

Assay outcome for NC(CCC(=O)NC(CSC(=O)N(O)c1ccc(Cl)cc1)C(=O)NCC(=O)O)C(=O)O (centres undefined) : what was it?
1.0

Assay outcome for `Nc1nnc(-c2ccco2)c(-c2ccco2)n1` : what was it?
0.0

The reported numbers originate from ChEMBL document CHEMBL1201862.
